Molecular target: T1, mouse programmed cell death protein 1 Fc fusion protein (mPD-1-Fc), mPD-1 C60S (aa 25-167) (Mus musculus, UniProt Q02242, stabilised)
T1 construct: not cleaved; source: Expi293F, purified (Protein A, SEC; dimeric fraction); not shown: Fc (human), C-terminal, kept
Test: SPR; Carterra LSA; Fab from the ammonium sulfate precipitate of the culture supernatant immobilised on a NiHC200M chip; hPD-1 (1-1024 nM) or mPD-1-Fc (4-1024 nM) as analyte, fourfold dilution series, no regeneration; HBS-EP pH 7.4, 25 °C; medians over the spots of a construct, KD = koff/kon
Conditions: one partner purified
Parameter: koff (s⁻¹)
One number for each entry, in s⁻¹.

Worked examples follow.
# Binder, Units of measure, koff
records = [
    ("toripalimab Fab L.S28Y (Fab, V domains shown, as the heavy chain of Sm3; light chain of Sm3 with this change; numbers count from the chain's first residue; source: Brevibacillus, culture supernatant (ammonium sulfate precipitate); not shown: 6xHis, C-terminal, kept; 6xHN, C-terminal, kept) VH: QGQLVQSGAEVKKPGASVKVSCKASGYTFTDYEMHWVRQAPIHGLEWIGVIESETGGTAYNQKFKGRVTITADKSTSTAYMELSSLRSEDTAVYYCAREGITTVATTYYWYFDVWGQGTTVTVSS VL: DVVMTQSPLSLPVTLGQPASISCRSSQYIVHSNGNTYLEWYLQKPGQSPQLLIYKVSNRFSGVPDRFSGSGSGTDFTLKISRVEAEDVGVYYCFQGSHVPLTFGQGTKLEIK", "s⁻¹", 0.00438),
    ("toripalimab Fab H.Y109A (Fab, V domains shown, heavy chain of Sm3 with this change; numbers count from the chain's first residue; as the light chain of Sm3; source: Brevibacillus, culture supernatant (ammonium sulfate precipitate); not shown: 6xHis, C-terminal, kept; 6xHN, C-terminal, kept) VH: QGQLVQSGAEVKKPGASVKVSCKASGYTFTDYEMHWVRQAPIHGLEWIGVIESETGGTAYNQKFKGRVTITADKSTSTAYMELSSLRSEDTAVYYCAREGITTVATTYAWYFDVWGQGTTVTVSS VL: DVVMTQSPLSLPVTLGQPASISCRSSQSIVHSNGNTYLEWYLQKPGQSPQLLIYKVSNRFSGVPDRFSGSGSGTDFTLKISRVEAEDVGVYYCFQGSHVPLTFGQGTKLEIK", "s⁻¹", 0.00179),
    ("toripalimab Fab L.L101N (Fab, V domains shown, as the heavy chain of Sm3; light chain of Sm3 with this change; numbers count from the chain's first residue; source: Brevibacillus, culture supernatant (ammonium sulfate precipitate); not shown: 6xHis, C-terminal, kept; 6xHN, C-terminal, kept) VH: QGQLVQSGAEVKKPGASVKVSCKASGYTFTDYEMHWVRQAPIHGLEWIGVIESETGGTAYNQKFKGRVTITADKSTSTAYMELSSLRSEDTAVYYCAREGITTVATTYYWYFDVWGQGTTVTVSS VL: DVVMTQSPLSLPVTLGQPASISCRSSQSIVHSNGNTYLEWYLQKPGQSPQLLIYKVSNRFSGVPDRFSGSGSGTDFTLKISRVEAEDVGVYYCFQGSHVPNTFGQGTKLEIK", "s⁻¹", 0.00447),
    ("toripalimab Fab H.I51A (Fab, V domains shown, heavy chain of Sm3 with this change; numbers count from the chain's first residue; as the light chain of Sm3; source: Brevibacillus, culture supernatant (ammonium sulfate precipitate); not shown: 6xHis, C-terminal, kept; 6xHN, C-terminal, kept) VH: QGQLVQSGAEVKKPGASVKVSCKASGYTFTDYEMHWVRQAPIHGLEWIGVAESETGGTAYNQKFKGRVTITADKSTSTAYMELSSLRSEDTAVYYCAREGITTVATTYYWYFDVWGQGTTVTVSS VL: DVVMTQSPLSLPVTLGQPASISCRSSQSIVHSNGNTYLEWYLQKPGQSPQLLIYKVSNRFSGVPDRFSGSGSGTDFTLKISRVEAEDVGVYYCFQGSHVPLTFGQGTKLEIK", "s⁻¹", 0.04),
]

Let's switch to this binder now.
Query string: Find the recorded koff belonging to toripalimab Fab L.V56A (Fab, V domains shown, as the heavy chain of Sm3; light chain of Sm3 with this change; numbers count from the chain's first residue; source: Brevibacillus, culture supernatant (ammonium sulfate precipitate); not shown: 6xHis, C-terminal, kept; 6xHN, C-terminal, kept) VH: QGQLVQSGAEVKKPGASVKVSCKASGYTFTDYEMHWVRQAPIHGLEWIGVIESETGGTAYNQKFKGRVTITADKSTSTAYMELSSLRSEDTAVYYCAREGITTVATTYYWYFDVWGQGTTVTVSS VL: DVVMTQSPLSLPVTLGQPASISCRSSQSIVHSNGNTYLEWYLQKPGQSPQLLIYKASNRFSGVPDRFSGSGSGTDFTLKISRVEAEDVGVYYCFQGSHVPLTFGQGTKLEIK and report it.
Result string: 0.00784
